Test system: MPR1-MDCK
protocolDetails: MPR1-MDCK permeability, potential to cross the blood-brain barrier
Format: in vitro ADME
conditions: efflux ratio
Labelling: Efflux reported below 20 becomes t; at or above becomes f.

# molecule, cat
rows = [
    ("CNCC(=O)NCCCN1CCN(CCCN2c3ccccc3Sc3ccc(C(F)(F)F)cc32)CC1 [ICI-00823]", "f"),
    ("NCC(=O)NCCN1CCC(CCCN2c3ccccc3Sc3ccc(C(F)(F)F)cc32)CC1 [ICI-00848]", "f"),
    ("FC(F)(F)c1ccc2c(c1)N(CCCC1CCNCC1)c1ccccc1S2 [ICI-00824]", "t"),
    ("NCCCN1CCN(CCCN2c3ccccc3Sc3ccc(C(F)(F)F)cc32)CC1 [ICI-00760]", "f"),
    ("CN(C)S(=O)(=O)c1ccc2c(c1)N(CCCN1CCN(CCN)CC1)c1ccccc1S2 [ICI-00715]", "f"),
    ("CNCC(=O)NCCN1CCN(CCCN2c3ccccc3Sc3ccc(C(F)(F)F)cc32)CC1 [ICI-00758]", "f"),
    ("CC(=O)NCCN1CCC(CCCN2c3ccccc3Sc3ccc(C(F)(F)F)cc32)CC1 [ICI-00850]", "t"),
    ("NCC(=O)NCCCN1CCN(CCCN2c3ccccc3Sc3ccc(C(F)(F)F)cc32)CC1 [ICI-00822]", "f"),
    ("N#Cc1ccc2c(c1)N(CCCN1CCN(CCN)CC1)c1ccccc1S2 [ICI-00894]", "f"),
    ("FC(F)(F)c1ccc2c(c1)N(CCCN1CCNCC1)c1ccccc1S2 [ICI-00685]", "t"),
    ("CN(C)CCN1CCN(CCCN2c3ccccc3Sc3ccc(C(F)(F)F)cc32)CC1 [ICI-00738]", "t"),
    ("FC(F)(F)c1ccc2c(c1)N(CCCCN1CCNCC1)c1ccccc1S2 [ICI-00890]", "t"),
    ("NCC(=O)NCCCN1CCC(CCCN2c3ccccc3Sc3ccc(C(F)(F)F)cc32)CC1 [ICI-01260]", "f"),
    ("CNCC(=O)NCCCN1CCC(CCCN2c3ccccc3Sc3ccc(C(F)(F)F)cc32)CC1 [ICI-01259]", "f"),
    ("NCCCN1CCC(CCCN2c3ccccc3Sc3ccc(C(F)(F)F)cc32)CC1 [ICI-00847]", "t"),
]

###

protocolDetails: Pharmacokinetics, plasma levels in mice
Type: in vivo, mouse
conditions: mouse, plasma, oral, 5 mg/kg orally vs 2.5 mg/kg intravenously

# compound, bioavailability
rows = [
    ("NCC(=O)NCCN1CCN(CCCN2c3ccccc3Sc3ccc(C(F)(F)F)cc32)CC1 [ICI-735]", "~20%"),
]

###

Reported % Recovery A-B values for a set of compounds
Tested on: MPR1-MDCK
protocolDetails: MPR1-MDCK permeability, potential to cross the blood-brain barrier
Type: in vitro ADME
conditions: A-B direction
measurementKind: % Recovery A-B (%)

# smilesEntry, studyTarget, measurementKind, observed
data = [
    ("NCCN1CCC(CCCN2c3ccccc3Sc3ccc(C(F)(F)F)cc32)CC1", "MPR1-MDCK", "% Recovery A-B", 3),
    ("NCC(=O)NCCCN1CCC(CCCN2c3ccccc3Sc3ccc(C(F)(F)F)cc32)CC1", "MPR1-MDCK", "% Recovery A-B", 55),
    ("NCC(=O)NCCCN1CCN(CCCN2c3ccccc3Sc3ccc(C(F)(F)F)cc32)CC1", "MPR1-MDCK", "% Recovery A-B", 61),
    ("FC(F)(F)c1ccc2c(c1)N(CCCC1CCNCC1)c1ccccc1S2", "MPR1-MDCK", "% Recovery A-B", 11),
    ("N#Cc1ccc2c(c1)N(CCCN1CCN(CCN)CC1)c1ccccc1S2", "MPR1-MDCK", "% Recovery A-B", 56),
    ("CN(C)S(=O)(=O)c1ccc2c(c1)N(CCCN1CCN(CCN)CC1)c1ccccc1S2", "MPR1-MDCK", "% Recovery A-B", 85),
    ("CN(C)CCN1CCN(CCCN2c3ccccc3Sc3ccc(C(F)(F)F)cc32)CC1", "MPR1-MDCK", "% Recovery A-B", 15),
    ("NCCCN1CCC(CCCN2c3ccccc3Sc3ccc(C(F)(F)F)cc32)CC1", "MPR1-MDCK", "% Recovery A-B", 9),
    ("FC(F)(F)c1ccc2c(c1)N(CCCCN1CCNCC1)c1ccccc1S2", "MPR1-MDCK", "% Recovery A-B", 15),
    ("CNCC(=O)NCCN1CCN(CCCN2c3ccccc3Sc3ccc(C(F)(F)F)cc32)CC1", "MPR1-MDCK", "% Recovery A-B", 59),
    ("NCC(=O)NCCN1CCC(CCCN2c3ccccc3Sc3ccc(C(F)(F)F)cc32)CC1", "MPR1-MDCK", "% Recovery A-B", 22),
    ("CNCC(=O)NCCCN1CCC(CCCN2c3ccccc3Sc3ccc(C(F)(F)F)cc32)CC1", "MPR1-MDCK", "% Recovery A-B", 29),
]

###

Reported Papp A-B values for a set of compounds
Tested on: MPR1-MDCK
protocolDetails: MPR1-MDCK permeability, potential to cross the blood-brain barrier
Type: in vitro ADME
conditions: A-B direction

# compound, Papp A-B
rows = [
    ("CNCC(=O)NCCCN1CCC(CCCN2c3ccccc3Sc3ccc(C(F)(F)F)cc32)CC1 [ICI-01259]", "<2.9e-07 cm/s"),
    ("NCCN1CCC(CCCN2c3ccccc3Sc3ccc(C(F)(F)F)cc32)CC1 [ICI-00846]", "<3.6e-07 cm/s"),
    ("CNCC(=O)NCCCN1CCN(CCCN2c3ccccc3Sc3ccc(C(F)(F)F)cc32)CC1 [ICI-00823]", "<2.4e-07 cm/s"),
    ("CNCC(=O)NCCN1CCC(CCCN2c3ccccc3Sc3ccc(C(F)(F)F)cc32)CC1 [ICI-00849]", "<1e-06 cm/s"),
    ("CN(C)CCCN1CCC(CCCN2c3ccccc3Sc3ccc(C(F)(F)F)cc32)CC1 [ICI-01505]", "<3.6e-07 cm/s"),
    ("NCCCN1CCN(CCCN2c3ccccc3Sc3ccc(C(F)(F)F)cc32)CC1 [ICI-00760]", "<2.5e-07 cm/s"),
    ("CNCC(=O)NCCN1CCN(CCCN2c3ccccc3Sc3ccc(C(F)(F)F)cc32)CC1 [ICI-00758]", "2.1e-07 cm/s"),
    ("FC(F)(F)c1ccc2c(c1)N(CCCN1CCNCC1)c1ccccc1S2 [ICI-00685]", "6.6e-07 cm/s"),
    ("CN(C)CCN1CCN(CCCN2c3ccccc3Sc3ccc(C(F)(F)F)cc32)CC1 [ICI-00738]", "1.06e-06 cm/s"),
]

###

System: MPR1-MDCK
protocolDetails: MPR1-MDCK permeability, potential to cross the blood-brain barrier
Format: in vitro ADME
conditions: B-A direction
Labelling: Papp B-A reported below 10 ×10⁻⁶ cm/s becomes Y; at or above becomes N.

# smilesEntry, cat
rows = [
    ("NCCCN1CCC(CCCN2c3ccccc3Sc3ccc(C(F)(F)F)cc32)CC1", "Y"),
    ("CNCC(=O)NCCCN1CCN(CCCN2c3ccccc3Sc3ccc(C(F)(F)F)cc32)CC1", "N"),
    ("NCC(=O)NCCCN1CCC(CCCN2c3ccccc3Sc3ccc(C(F)(F)F)cc32)CC1", "N"),
    ("FC(F)(F)c1ccc2c(c1)N(CCCN1CCNCC1)c1ccccc1S2", "Y"),
    ("FC(F)(F)c1ccc2c(c1)N(CCCCN1CCNCC1)c1ccccc1S2", "Y"),
    ("NCC(=O)NCCN1CCC(CCCN2c3ccccc3Sc3ccc(C(F)(F)F)cc32)CC1", "N"),
    ("NCC(=O)NCCCN1CCN(CCCN2c3ccccc3Sc3ccc(C(F)(F)F)cc32)CC1", "N"),
    ("FC(F)(F)c1ccc2c(c1)N(CCCC1CCNCC1)c1ccccc1S2", "N"),
    ("CNCC(=O)NCCCN1CCC(CCCN2c3ccccc3Sc3ccc(C(F)(F)F)cc32)CC1", "N"),
    ("N#Cc1ccc2c(c1)N(CCCN1CCN(CCN)CC1)c1ccccc1S2", "N"),
    ("NCCCN1CCN(CCCN2c3ccccc3Sc3ccc(C(F)(F)F)cc32)CC1", "N"),
    ("CNCC(=O)NCCN1CCN(CCCN2c3ccccc3Sc3ccc(C(F)(F)F)cc32)CC1", "N"),
    ("CN(C)CCN1CCN(CCCN2c3ccccc3Sc3ccc(C(F)(F)F)cc32)CC1", "Y"),
    ("CC(=O)NCCN1CCC(CCCN2c3ccccc3Sc3ccc(C(F)(F)F)cc32)CC1", "Y"),
]
